Cited source for all entries: patent US12054510B2

Tested on: RPMI-8226
assaySummary: Solid tumour and haematological malignancy assay (CellTiterGlo)
Format: cell-based, Human
experimentalParameters: Homo sapiens, RPMI-8226, 72 h, read-out: IC50 (absolute IC50)
assayEndpoint: IC50

Ask: // fetch IC50 given entry CCOC(=O)CCc1ccccc1OP(=O)(N[C@@H](C)C(=O)OCc1ccccc1)OC[C@@H]1C[C@@H](O)[C@H](n2cnc3c(N)ncnc32)O1 (stereo partly shown)
Reply: 15 to 100 µM

----------
Test system: MCF-7
assaySummary: CellTiterGlo cell viability assay, initial screening
Format: cell-based
experimentalParameters: MCF-7; 72 hr; Table II
assayEndpoint: M.I. %: maximum percentage inhibition of cell viability

Ask: // fetch M.I. %: maximum percentage inhibition of cell viability given entry C[C@H](NP(=O)(Oc1cccc2ccccc12)O[C@@H]1C[C@@H](CO)O[C@H]1n1cnc2c(N)ncnc21)C(=O)OCc1ccccc1 (stereo partly drawn)
Reply: 99%

Ask: // fetch M.I. %: maximum percentage inhibition of cell viability given entry CCCCCOC(=O)[C@H](CC(C)C)NP(=O)(OC[C@@H]1C[C@@H](O)[C@H](n2cnc3c(N)ncnc32)O1)Oc1cccc2ccccc12 (mixture of isomers)
Reply: 100%

Ask: // fetch M.I. %: maximum percentage inhibition of cell viability given entry C[C@H](NP(=O)(N[C@@H](C)C(=O)OCc1ccccc1)OC[C@@H]1CC(O)[C@H](n2cnc3c(N)ncnc32)O1)C(=O)OCc1ccccc1 (stereo in doubt)
Reply: 97%

Ask: // fetch M.I. %: maximum percentage inhibition of cell viability given entry CCOC(=O)CCc1ccccc1OP(=O)(N[C@@H](C)C(=O)OCc1ccccc1)OC[C@@H]1C[C@@H](O)[C@H](n2cnc3c(N)ncnc32)O1 (stereo partly drawn)
Reply: 99%

Ask: // fetch M.I. %: maximum percentage inhibition of cell viability given entry COC(=O)C(C)(C)NP(=O)(OC[C@@H]1C[C@@H](O)[C@H](n2cnc3c(N)ncnc32)O1)Oc1cccc2ccccc12 (stereo partly drawn)
Reply: 78%

Ask: // fetch M.I. %: maximum percentage inhibition of cell viability given entry C[C@H](NP(=O)(Oc1ccccc1)O[C@@H]1C[C@@H](CO)O[C@H]1n1cnc2c(N)ncnc21)C(=O)OCc1ccccc1 (stereo partly drawn)
Reply: 97%

----------
Tested on: KG-1
assaySummary: CellTiterGlo cell viability assay, initial screening
Assay type: cell-based
experimentalParameters: KG-1; 72 hr; Table II
Assign labels as follows, please: y for M.I. %: maximum percentage inhibition of cell viability below 70%; n for M.I. %: maximum percentage inhibition of cell viability equal to or exceeding 70%.

Ask: Would you kindly verify if M.I. %: maximum percentage inhibition of cell viability of Nc1ncnc2c1ncn2[C@@H]1O[C@H](COP(=O)(NCC(=O)OCc2ccccc2)Oc2ccccc2)C[C@H]1O (some centres unmarked) [C] is strictly less than 70%?
Reply: y

Ask: Would you kindly verify if M.I. %: maximum percentage inhibition of cell viability of C[C@H](NP(=O)(Oc1ccccc1)O[C@@H]1C[C@@H](CO)O[C@H]1n1cnc2c(N)ncnc21)C(=O)OCc1ccccc1 (some centres unmarked) [G] is strictly less than 70%?
Reply: y

Ask: Would you kindly verify if M.I. %: maximum percentage inhibition of cell viability of CCOC(=O)CCc1ccccc1OP(=O)(N[C@@H](C)C(=O)OCc1ccccc1)OC[C@@H]1C[C@@H](O)[C@H](n2cnc3c(N)ncnc32)O1 (some centres unmarked) [F] is strictly less than 70%?
Reply: n

Ask: Would you kindly verify if M.I. %: maximum percentage inhibition of cell viability of C[C@H](NP(=O)(OC[C@@H]1C[C@@H](O)[C@H](n2cnc3c(N)ncnc32)O1)Oc1cccc2ccccc12)C(=O)OCc1ccccc1 (some centres unmarked) [B] is strictly less than 70%?
Reply: n

Ask: Would you kindly verify if M.I. %: maximum percentage inhibition of cell viability of CCCCCOC(=O)[C@H](CC(C)C)NP(=O)(OC[C@@H]1C[C@@H](O)[C@H](n2cnc3c(N)ncnc32)O1)Oc1cccc2ccccc12 (mixture of isomers) [D] is strictly less than 70%?
Reply: n

Ask: Would you kindly verify if M.I. %: maximum percentage inhibition of cell viability of C[C@H](NP(=O)(Oc1cccc2ccccc12)O[C@@H]1C[C@@H](CO)O[C@H]1n1cnc2c(N)ncnc21)C(=O)OCc1ccccc1 (some centres unmarked) [Compound I] is strictly less than 70%?
Reply: n

----------
Exercise: state measured (FD) fold difference compared to Cordycepin = Cordycepin IC50/ProTide IC50 for each of the compounds provided.
Tested on: CEM (TdT+ve)
assaySummary: ATP ViaLight plus cell viability assay
Type: cell-based, Human
experimentalParameters: CEM (TdT+ve)
Form rule: numeric answer, no unit written next to it.

Ask: // fetch (FD) fold difference compared to Cordycepin = Cordycepin IC50/ProTide IC50 given entry CCOC(=O)CCc1ccccc1OP(=O)(N[C@@H](C)C(=O)OCc1ccccc1)OC[C@@H]1C[C@@H](O)[C@H](n2cnc3c(N)ncnc32)O1 (stereo partly shown)
Reply: 5

Ask: // fetch (FD) fold difference compared to Cordycepin = Cordycepin IC50/ProTide IC50 given entry CCCCCOC(=O)[C@H](CC(C)C)NP(=O)(OC[C@@H]1C[C@@H](O)[C@H](n2cnc3c(N)ncnc32)O1)Oc1cccc2ccccc12 (mixture of isomers)
Reply: 3

Ask: // fetch (FD) fold difference compared to Cordycepin = Cordycepin IC50/ProTide IC50 given entry COC(=O)C(C)(C)NP(=O)(OC[C@@H]1C[C@@H](O)[C@H](n2cnc3c(N)ncnc32)O1)Oc1cccc2ccccc12 (stereo partly shown)
Reply: 2

Ask: // fetch (FD) fold difference compared to Cordycepin = Cordycepin IC50/ProTide IC50 given entry C[C@H](NP(=O)(OC[C@@H]1C[C@@H](O)[C@H](n2cnc3c(N)ncnc32)O1)Oc1cccc2ccccc12)C(=O)OCc1ccccc1 (stereo partly shown)
Reply: 150

----------
System: HL-60
assaySummary: ATP ViaLight plus cell viability assay
Assay type: cell-based, Human
experimentalParameters: HL-60
Procedure: […] The amount of ATP was used as a measurement of cell number and cell viability. ATP ViaLight™ plus assay kit (Lonza, USA: Product No. LT07-121) to detect ATP in cells treated in luminescence compatible 96 well plates (initial concentration of cells was 1×10^4 cells/well) with cordycepin and ProTides at concentrations of: 0, 0.1, 0.5, 1, 5 and 10 μM, followed by incubation for 72 hours at 37° C. incubator with 5% CO2. […]
Exercise: state measured (FD) fold difference compared to Cordycepin = Cordycepin IC50/ProTide IC50 for each of the compounds provided.
Form rule: numeric answer, no unit written next to it.

Ask: // fetch (FD) fold difference compared to Cordycepin = Cordycepin IC50/ProTide IC50 given entry COC(=O)C(C)(C)NP(=O)(OC[C@@H]1C[C@@H](O)[C@H](n2cnc3c(N)ncnc32)O1)Oc1cccc2ccccc12 (stereo partly shown)
Reply: 1

Ask: // fetch (FD) fold difference compared to Cordycepin = Cordycepin IC50/ProTide IC50 given entry CCOC(=O)CCc1ccccc1OP(=O)(N[C@@H](C)C(=O)OCc1ccccc1)OC[C@@H]1C[C@@H](O)[C@H](n2cnc3c(N)ncnc32)O1 (stereo partly shown)
Reply: 1

Ask: // fetch (FD) fold difference compared to Cordycepin = Cordycepin IC50/ProTide IC50 given entry CCCCCOC(=O)[C@H](CC(C)C)NP(=O)(OC[C@@H]1C[C@@H](O)[C@H](n2cnc3c(N)ncnc32)O1)Oc1cccc2ccccc12 (mixture of isomers)
Reply: 2

Ask: // fetch (FD) fold difference compared to Cordycepin = Cordycepin IC50/ProTide IC50 given entry C[C@H](NP(=O)(OC[C@@H]1C[C@@H](O)[C@H](n2cnc3c(N)ncnc32)O1)Oc1cccc2ccccc12)C(=O)OCc1ccccc1 (stereo partly shown)
Reply: 4

----------
Tested on: K562
assaySummary: CellTiterGlo cell viability assay, initial screening
Type: cell-based
experimentalParameters: 72 hr, Table II
assayEndpoint: M.I. %: maximum percentage inhibition of cell viability (%)
// units = %; emit number, no label

Ask: For K562, give M.I. %: maximum percentage inhibition of cell viability of the listed compound: C[C@H](NP(=O)(Oc1ccccc1)O[C@@H]1C[C@@H](CO)O[C@H]1n1cnc2c(N)ncnc21)C(=O)OCc1ccccc1 (stereo partly shown)
Reply: 78

Ask: For K562, give M.I. %: maximum percentage inhibition of cell viability of the listed compound: CCCCCOC(=O)[C@H](CC(C)C)NP(=O)(OC[C@@H]1C[C@@H](O)[C@H](n2cnc3c(N)ncnc32)O1)Oc1cccc2ccccc12 (mixture of isomers)
Reply: 99

Ask: For K562, give M.I. %: maximum percentage inhibition of cell viability of the listed compound: C[C@H](NP(=O)(OC[C@@H]1C[C@@H](OP(=O)(N[C@@H](C)C(=O)OCc2ccccc2)Oc2ccccc2)[C@H](n2cnc3c(N)ncnc32)O1)Oc1ccccc1)C(=O)OCc1ccccc1 (stereo partly shown)
Reply: 89

Ask: For K562, give M.I. %: maximum percentage inhibition of cell viability of the listed compound: C[C@H](NP(=O)(Oc1cccc2ccccc12)O[C@@H]1C[C@@H](CO)O[C@H]1n1cnc2c(N)ncnc21)C(=O)OCc1ccccc1 (stereo partly shown)
Reply: 87
